Tested on: UACC-62 melanoma
PROCEDURE TEXT: NCI tumour cell line growth inhibition, 48 h
MEASURED PROPERTY: TGI (µM)

COMPOUND	VALUE PREFIX	NUMBER
Cc1n(CC(C)C)c2c([n+]1C)C(=O)c1ccccc1C2=O	=	0.576
Cc1ccc(C(=O)O)c(/C=C2\Cc3ccc(C)cc3C2=O)c1	>	100
O=C1CS(=O)(=O)C(c2cccc(Oc3ccccc3)c2)N1c1ccc(Cl)cc1 (stereo unspecified)	=	24.6
O=C(/C=C/c1ccccc1)Nc1ncc(Cc2ccccc2Cl)s1	>	100
N[C@H](C(=O)O)[C@@H]1CC(Cl)=NO1	=	401
O=c1[nH]c2cc(C(F)(F)F)ccc2nc1C(F)(F)F	>	100

====

Recorded TGI by entry
System: NCI-H23 lung
PROCEDURE TEXT: NCI tumour cell line growth inhibition, 48 h
MEASURED PROPERTY: TGI

MOLECULE	RESULT
C=CCCON(C(=O)OC(C)(C)C)c1ccccc1	> 100 µM
C[C@]12CCc3sc(Nc4ccc(OC(F)(F)F)cc4)nc3C1=CC[C@@H]1[C@@H]2CC[C@]2(C)C(=O)CC[C@@H]12	21.7 µM
CC/C=C\C[C@H]1CC=C2C(=O)C=C[C@@H]2CC=CCCCC(=O)O[C@@H](CCCCC)CC=C2C(=O)C=C[C@@H]2CC=CCCCC(=O)O[C@@H](CCCCC)CC=C2C(=O)C=C[C@@H]2CC=CCCCC(=O)O[C@@H](CCCCC)CC=C2C(=O)C=C[C@@H]2CC=CCCCC(=O)O1	> 7.9 µM

====

Tested on: PC-3 prostate
PROCEDURE TEXT: NCI tumour cell line growth inhibition, 48 h
Recorded TGI by entry
MEASURED PROPERTY: TGI (µM)

COMPOUND	SYSTEM UNDER TEST	MEASURED PROPERTY	VALUE PREFIX	NUMBER
COC(=O)c1csc([C@@H](OC(=O)[C@H](C)[C@H](CCCC(C)(Cl)Cl)OC(=O)c2csc([C@H](O)CO)n2)C(C)C)n1	PC-3 prostate	TGI	=	26.7
C=CCCON(C(=O)OC(C)(C)C)c1ccccc1	PC-3 prostate	TGI	>	100
CNC1(c2cc3ccccc3s2)CCCCC1	PC-3 prostate	TGI	=	55.5
CCCC(C)c1ccc(OCCCCCCN2CCNCC2)cc1 (stereo not given)	PC-3 prostate	TGI	=	4.94
COc1ccc2c(c1)C(=O)/C(=C/c1cccc(OCC(=O)c3ccccc3)c1)O2	PC-3 prostate	TGI	=	17.4

====

Test system: LOX IMVI melanoma
PROCEDURE TEXT: NCI tumour cell line growth inhibition, 48 h
Recorded TGI by entry
MEASURED PROPERTY: TGI

COMPOUND	RESULT
CCOc1cc(C(C)(C)C)ccc1C1=N[C@H](c2ccc(Cl)cc2)[C@H](c2ccc(Cl)cc2)N1C(=O)N1CCN(CC#Cc2cccc3c2CN([C@@H]2CCC(=O)NC2=O)C3=O)CC1	22.7 µM
CC1(C)N/C(=C\[N+](=O)[O-])C(C)(C)N1O	> 10 µM
CCCCCCCCn1ccc2cc(NC(=O)Cn3cc(CN4CCCCCC4)nn3)ccc21	3.17 µM
CSC(SC)(C(=O)O)c1cc(-c2c(Cl)cccc2Cl)no1	> 100 µM
O=C(O)CO[C@@]12C#C/C=C\C#C[C@@H]3N(C(=O)Oc4ccccc4)c4ccccc4[C@]14O[C@@]34CCC2	> 100 µM
COc1cc2c(cc1O)c(O)cc1c3cc(OC)c(OC)cc3c[n+](C)c21	> 55.2 µM
CC1(C)N=C(N)N=C(N)N1c1ccc(CCC(=O)Nc2ccc(S(=O)(=O)F)cc2)c(Cl)c1	> 100 µM
C=C(CCOC)CCC1CCCCC(CN(C)C)C1=O (stereo not given)	> 100 µM
O=C(O)CSCCc1ccccc1	> 100 µM
CNC(=O)OCc1nc(SSC(C)(C)C)n(C)c1COC(=O)NC	8.61 µM

====

Tested on: OVCAR-5 ovarian
PROCEDURE TEXT: NCI tumour cell line growth inhibition, 48 h
Recorded TGI by entry

MOLECULE	UNIT NAME	VALUE PREFIX	TGI
CC(=O)C1C(c2ccccc2)C2(C)OC(=O)C(C#N)C12C (stereo unspecified)	µM	>	100
Clc1ccc(CCN(CCc2ccc(Cl)c(Cl)c2)CCN2CCCC2)cc1Cl	µM	=	3.23
O=S(=O)(C1=CC(S(=O)(=O)c2ccccc2)CN(Cc2ccccc2)C1c1cccc2ccccc12)c1ccccc1 (stereo unspecified)	µM	>	69
CN(c1ccc(NC(=O)Nc2c(Cl)cccc2Cl)cc1)c1ccnc(Nc2cccc(CS(C)(=O)=O)c2)n1	µM	>	19.5
O=C1C=CC(=O)C2C1C1(Cl)C(Cl)=C(Cl)C2(Cl)C1(Cl)Cl (stereo unspecified)	µM	=	31.1
CC(=O)Oc1cc2c(cc1OC(C)=O)C1(C)CCC2(C)c2cc(OC(C)=O)c(OC(C)=O)cc21	µM	=	80.9
Oc1ccc2ccccc2c1N=Nc1cccc2ccccc12	µM	>	100
CN(C)Cc1cc(C(F)(F)F)ccc1C(O)(c1ccccc1)c1ccccc1	µM	=	36.9
CCOC(=O)/C=C(\C(=O)OCC)n1cc(C)c(=O)n(Cc2cn(CCCCOC(C)=O)nn2)c1=O	µM	=	27.1
COc1ccc(NC(=O)CC/C(CC(=O)c2ccco2)=N/NC(=O)C(N)=O)cc1	µM	>	100
COc1ccc2nc(N/N=C/c3sccc3C)cc(C)c2c1	µM	=	61.3
COc1cc(NCC(C#N)C#N)ccc1N=Nc1ccc(Cl)cc1	µM	=	44.4
Nc1ncnc2c1ncn2C1C=C(CO)C(O)C1O (stereo unspecified)	µM	>	100
S=C(N/N=C/c1ccccn1)N1CCCCC1	µM	>	100
Cc1cccc(Cl)c1NCC(O)CN1CCN(C)CC1 (stereo unspecified)	µM	>	100
N#CCC(=O)N/N=C1/C(=O)N(c2ccc(Cl)cc2)C(=O)C(=O)C1c1nc2ccccc2s1 (stereo unspecified)	µM	>	100

====

Test system: HOP-92 NSCLC
PROCEDURE TEXT: NCI tumour cell line growth inhibition, 48 h; in the data active = GI50 below about 0.43 µM; inactive = the rest
Outcomes: 1 = active, -1 = inactive

MOLECULE	LABEL
CCCC(C)c1ccc(OCCCCCCN2CCNCC2)cc1 (stereo not given)	-1
CCN1C(=O)/C(=C/c2c(Cl)[nH]c3cc(C)c(OC)cc23)c2ccccc21	-1
CCOc1cccc(/C=N/NC(=O)c2cccc(Nc3ccnc(C(F)(F)F)c3)c2)c1O	-1
Nc1ncc(-c2cnn(C3CCNCC3)c2)cc1-c1nc2cc(Cl)ccc2o1	-1
O=C1C=CC(=O)C2C1C1(Cl)C(Cl)=C(Cl)C2(Cl)C1(Cl)Cl (stereo not given)	-1
N/N=C\c1c2ccccc2c(=O)n2c1oc1ccccc12	-1
COc1ccc2c(c1)OC1=C(C(=O)OC1)C2c1cc(OC)c2c(c1)OCCO2 (stereo not given)	1
COc1ccc2c(c1)C(=O)/C(=C/c1cccc(OCC(=O)c3ccccc3)c1)O2	-1
COc1cc(Nc2ncccc2C(=O)Nc2nc3ccc(F)cc3s2)cc(OC)c1OC	-1
CN(c1ccc(NC(=O)Nc2c(Cl)cccc2Cl)cc1)c1ccnc(Nc2cccc(CS(C)(=O)=O)c2)n1	-1

====

Test system: RPMI-8226 leukemia
PROCEDURE TEXT: NCI tumour cell line growth inhibition, 48 h
MEASURED PROPERTY: GI50

COMPOUND	SYSTEM UNDER TEST	RESULT
CC1(C)N=C(N)N=C(N)N1c1ccc(CCC(=O)Nc2ccc(S(=O)(=O)F)cc2)c(Cl)c1	RPMI-8226 leukemia	515 nM
N/N=C\c1c2ccccc2c(=O)n2c1oc1ccccc12	RPMI-8226 leukemia	9180 nM
NC(CSC(c1ccccc1)(c1ccccc1)c1ccccc1)C(=O)NCC(=O)O (stereo not drawn)	RPMI-8226 leukemia	3420 nM
[N-]=[N+]=NCCCn1c2c(c3ccc([N+](=O)[O-])cc3c1=O)C(=O)c1ccccc1-2	RPMI-8226 leukemia	6040 nM
CCOc1cc(C(C)(C)C)ccc1C1=N[C@H](c2ccc(Cl)cc2)[C@H](c2ccc(Cl)cc2)N1C(=O)N1CCN(CC#Cc2cccc3c2CN([C@@H]2CCC(=O)NC2=O)C3=O)CC1	RPMI-8226 leukemia	2300 nM
Cc1cn(-c2cc(NC(=O)c3cccc(C#Cc4cccc5[nH]nc(N)c45)c3)cc(C(F)(F)F)c2)cn1	RPMI-8226 leukemia	4540 nM
CC/C=C\C[C@H]1CC=C2C(=O)C=C[C@@H]2CC=CCCCC(=O)O[C@@H](CCCCC)CC=C2C(=O)C=C[C@@H]2CC=CCCCC(=O)O[C@@H](CCCCC)CC=C2C(=O)C=C[C@@H]2CC=CCCCC(=O)O[C@@H](CCCCC)CC=C2C(=O)C=C[C@@H]2CC=CCCCC(=O)O1	RPMI-8226 leukemia	1830 nM
COC(=O)c1ccc2[nH]c(O)c(C(=Nc3ccc(N(C)C(=O)CN4CCN(C)CC4)cc3)c3ccc4c(c3)OCO4)c2c1	RPMI-8226 leukemia	655 nM
C=C1c2c(C)nn(-c3ccc(C#CCOC4OC(CO)C(O)C(O)C4O)cc3)c2N(C)C23C[C@H]1C1(C)c4c(C)nn(-c5ccc(C#CCOC6OC(CO)C(O)C(O)C6O)cc5)c4N(C)C(C)(C[C@H]12)C3 (stereo partly drawn)	RPMI-8226 leukemia	290 nM
O=C1NC(=S)S/C1=C/c1ccc2c(c1)OCO2	RPMI-8226 leukemia	> 100000 nM
C#CC1(O)C(COP(=O)(O)OCC(COP(=O)(O)OCC2OC(n3cc(F)c(=O)[nH]c3=O)CC2O)OCCCCCCCCCCCCCCCCCC)OC(n2ccc(N)nc2=O)C1O (stereo not drawn)	RPMI-8226 leukemia	111 nM
CCC[CH2][Sn]([CH2]CCC)([O]C(=O)CN)[O]C(=O)CN	RPMI-8226 leukemia	15300 nM
COc1ccc2c(c1)OC1=C(C(=O)OC1)C2c1cc(OC)c2c(c1)OCCO2 (stereo not drawn)	RPMI-8226 leukemia	87.1 nM
